SYSTEM_TESTED: eIF4E minor variant D127N (N127) (Homo sapiens, UniProt P06730, D127N)
Construct: made in house; host or cells: E. coli BL21-CodonPlus (DE3)-RIPL
Sequence (P06730 36-217 D127N): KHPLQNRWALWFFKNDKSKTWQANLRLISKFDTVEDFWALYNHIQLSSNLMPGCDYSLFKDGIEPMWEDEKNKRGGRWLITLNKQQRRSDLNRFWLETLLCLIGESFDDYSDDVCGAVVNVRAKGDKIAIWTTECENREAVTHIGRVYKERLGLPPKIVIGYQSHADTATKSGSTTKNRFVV
MEASUREMENT_DESCRIPTION: Isothermal titration calorimetry, eIF4E minor variant
Type: binding
TEST_CONDITIONS: ITC; minor variant D127N
Protocol: ITC experiments were performed on either a MicroCal VP-ITC or a MicroCal Auto-ITC200 at 25 °C in a buffer comprising 50 mM HEPES, 100 mM NaCl, 1 mM TCEP and 5% DMSO at pH 7.5. Typical titrations on the MicroCal VP-ITC were performed using 17 × 16.4 µL injections with a 250 s spacing between each injection and with a stirring speed of 307 rpm. […]
pKd: −log10 of the molar value.
Each item that follows carries a reported pKd.
ENDPOINT: pKd

[[record]]
compound = "CC(O)c1ccc(-c2ccccc2F)cc1 (stereo not drawn)"
system_tested = "eIF4E minor variant D127N (N127) (Homo sapiens, UniProt P06730, D127N)"
data_value = 4.70

[[record]]
compound = "Oc1cccc(-c2ccccc2)c1 [Compound 1, [1,1'-biphenyl]-3-ol]"
system_tested = "eIF4E minor variant D127N (N127) (Homo sapiens, UniProt P06730, D127N)"
data_value = 3.40

[[record]]
compound = "O=C(O)C1(c2ccc(Cl)cc2)CCCC1"
system_tested = "eIF4E minor variant D127N (N127) (Homo sapiens, UniProt P06730, D127N)"
data_value = 2.13

